Please go through the items and note down their HCT-15 % Kill.
# System: HCT15 cells
# Procedure Summary: cells
# Format: cell-based, human
# Applied Conditions: HCT15 cells, without Verapamil, maximum % cell killing
Dear colleague, please return just the value in %, with no unit written.

QUERY: Reported HCT-15 % Kill for CC[C@H](C)[C@H](NC(=O)[C@H]1CCCCN1C)C(=O)N(OCCCOCc1ccc(N)cc1)[C@H](C[C@@H](OC(C)=O)c1nc(C(=O)N[C@@H](Cc2ccc(O)cc2)C[C@H](C)C(=O)O)cs1)C(C)C : what is it?
RESULT: −3.8

QUERY: And C#CCCCCN(C(=O)[C@@H](NC(=O)[C@H]1CCCCN1C)[C@@H](C)CC)[C@H](C[C@@H](OC(C)=O)c1nc(C(=O)N[C@@H](Cc2ccccc2)CC(C)(C)C(=O)O)cs1)C(C)C ?
RESULT: 98

QUERY: And CCCC(=O)OCN(C(=O)[C@@H](NC(=O)[C@H]1CCCCN1C)[C@@H](C)CC)[C@H](C[C@@H](OC(C)=O)c1nc(C(=O)N[C@@H](Cc2ccc(O)cc2)C[C@H](C)C(=O)O)cs1)C(C)C [reference compound] ?
RESULT: 99.1

QUERY: And C#CCCCON(C(=O)[C@@H](NC(=O)[C@H]1CCCCN1C)[C@@H](C)CC)[C@H](C[C@@H](OC(C)=O)c1nc(C(=O)N[C@@H](Cc2ccc(N)cc2)CC(C)(C)C(=O)O)cs1)C(C)C ?
RESULT: 98.6

QUERY: And CC[C@H](C)[C@H](NC(=O)[C@H]1CCCCN1C)C(=O)N(CCCCc1cn(-c2ccccc2)nn1)[C@H](C[C@@H](OC(C)=O)c1nc(C(=O)N[C@@H](Cc2ccc(N)cc2)CC(C)(C)C(=O)O)cs1)C(C)C ?
RESULT: 98.7

====

Please go through the items and note down their log10 of IC50.
# System: MES-SA/MX2 cells
# Procedure Summary: Cytotoxicity in panel of MDR cell lines, MES-SA/MX2 (72 h and 144 h)
# Assay type: cell-based, human
# Applied Conditions: Homo sapiens, 72 h incubation, read-out: MES-SA/MX2 IC50 72 h
Response schema: value (number) is log10 of IC50 in units of nM.

QUERY: Reported log10 of IC50 for CCCC(=O)OCN(C(=O)[C@@H](NC(=O)[C@H]1CCCCN1C)[C@@H](C)CC)[C@H](C[C@@H](OC(C)=O)c1nc(C(=O)N[C@@H](Cc2ccc(O)cc2)C[C@H](C)C(=O)O)cs1)C(C)C [reference compound] : what is it?
RESULT: -0.24

QUERY: And C#CCCCCN(C(=O)[C@@H](NC(=O)[C@H]1CCCCN1C)[C@@H](C)CC)[C@H](C[C@@H](OC(C)=O)c1nc(C(=O)N[C@@H](Cc2ccc(N)cc2)CC(C)(C)C(=O)O)cs1)C(C)C ?
RESULT: -1.27

QUERY: And CC[C@H](C)[C@H](NC(=O)[C@H]1CCCCN1C)C(=O)N(CCCCc1cn(C)nn1)[C@H](C[C@@H](OC(C)=O)c1nc(C(=O)N[C@@H](Cc2ccc(N)cc2)CC(C)(C)C(=O)O)cs1)C(C)C ?
RESULT: 0.87

QUERY: And C#CCCCCN(C(=O)[C@@H](NC(=O)[C@H]1CCCCN1C)[C@@H](C)CC)[C@H](C[C@@H](OC(C)=O)c1nc(C(=O)N[C@@H](Cc2ccc(O)cc2)C[C@H](C)C(=O)O)cs1)C(C)C ?
RESULT: 0.41

QUERY: And CCCCCON(C(=O)[C@@H](NC(=O)[C@H]1CCCCN1C)[C@@H](C)CC)[C@H](C[C@@H](OC(=O)NC)c1nc(C(=O)N[C@@H](Cc2ccc(N)cc2)CC(C)(C)C(=O)O)cs1)C(C)C ?
RESULT: 0.10

====

Please go through the items and note down their H69AR % Kill 144 h.
# System: H69AR cells
# Procedure Summary: Cytotoxicity in panel of MDR cell lines, H69AR (72 h and 144 h)
# Assay type: cell-based, human
# Applied Conditions: 144 h incubation
Dear colleague, please return just the value in %, with no unit written.

QUERY: Can you look up H69AR % Kill 144 h on H69AR cells for CCCCCON(C(=O)[C@@H](NC(=O)[C@H]1CCCCN1C)[C@@H](C)CC)[C@H](C[C@@H](OC(=O)NC)c1nc(C(=O)N[C@@H](Cc2ccc(N)cc2)CC(C)(C)C(=O)O)cs1)C(C)C ?
RESULT: 99.1

QUERY: And C#CCCCCN(C(=O)[C@@H](NC(=O)[C@H]1CCCCN1C)[C@@H](C)CC)[C@H](C[C@@H](OC(C)=O)c1nc(C(=O)N[C@@H](Cc2ccc(F)cc2)CC(C)(C)C(=O)O)cs1)C(C)C ?
RESULT: 99.3

QUERY: And CCCCCCN(C(=O)[C@@H](NC(=O)[C@H]1CCCCN1C)[C@@H](C)CC)[C@H](C[C@@H](OC(C)=O)c1nc(C(=O)N[C@@H](Cc2ccc(N)c(F)c2)CC(C)(C)C(=O)O)cs1)C(C)C ?
RESULT: 99.1

QUERY: And CC[C@H](C)[C@H](NC(=O)[C@H]1CCCCN1C)C(=O)N(CCCCc1cn(C)nn1)[C@H](C[C@@H](OC(C)=O)c1nc(C(=O)N[C@@H](Cc2ccc(N)cc2)CC(C)(C)C(=O)O)cs1)C(C)C ?
RESULT: 97.5

====

# Tested on: H69AR cells
# Procedure Summary: Cytotoxicity in panel of MDR cell lines, H69AR (72 h and 144 h)
# Type: cell-based, human
# Applied Conditions: Homo sapiens, 144 h incubation, read-out: H69AR IC50 144 h
Please go through the items and note down their log10 IC50.
Response schema: value (number) is log10 of IC50 in units of nM.

QUERY: Reported log10 IC50 for CCCCCCN(C(=O)[C@@H](NC(=O)[C@H]1CCCCN1C)[C@@H](C)CC)[C@H](C[C@@H](OC(C)=O)c1nc(C(=O)N[C@@H](Cc2ccc(F)cc2)C[C@H](C)C(=O)O)cs1)C(C)C : what is it?
RESULT: 0.14

QUERY: And CC[C@H](C)[C@H](NC(=O)[C@H]1CCCCN1C)C(=O)N(CCCCc1cn(C)nn1)[C@H](C[C@@H](OC(C)=O)c1nc(C(=O)N[C@@H](Cc2ccc(N)cc2)CC(C)(C)C(=O)O)cs1)C(C)C ?
RESULT: 0.52

QUERY: And [2H]c1cc(C[C@@H](CC(C)(C)C(=O)O)NC(=O)c2csc([C@@H](C[C@H](C(C)C)N(CCCCCC)C(=O)[C@@H](NC(=O)[C@H]3CCCCN3C)[C@@H](C)CC)OC(C)=O)n2)cc([2H])c1N ?
RESULT: -0.55

QUERY: And CCCCCCON(C(=O)[C@@H](NC(=O)[C@H]1CCCCN1C)[C@@H](C)CC)[C@H](C[C@@H](OC(=O)NC)c1nc(C(=O)N[C@@H](Cc2ccc(O)cc2)C[C@H](C)C(=O)O)cs1)C(C)C ?
RESULT: 1.90

QUERY: And CCCCCCN(C(=O)[C@@H](NC(=O)[C@H]1CCCCN1C)[C@@H](C)CC)[C@H](C[C@@H](OC(C)=O)c1nc(C(=O)NC(Cc2ccc(F)c(NC)c2)CC(C)(C)C(=O)O)cs1)C(C)C (stereo partly shown) ?
RESULT: -0.09

QUERY: And C#CCCCCN(C(=O)[C@@H](NC(=O)[C@H]1CCCCN1C)[C@@H](C)CC)[C@H](C[C@@H](OC(C)=O)c1nc(C(=O)N[C@@H](Cc2ccc(N)cc2)CC(C)(C)C(=O)O)cs1)C(C)C ?
RESULT: -0.88

QUERY: And C#CCCCCN(C(=O)[C@@H](NC(=O)[C@H]1CCCCN1C)[C@@H](C)CC)[C@H](C[C@@H](OC(C)=O)c1nc(C(=O)N[C@@H](Cc2ccc(N)cc2)C[C@H](C)C(=O)O)cs1)C(C)C ?
RESULT: -0.24

QUERY: And CC[C@H](C)[C@H](NC(=O)[C@H]1CCCCN1C)C(=O)N(CCCCc1cn(Cc2ccccc2)nn1)[C@H](C[C@@H](OC(C)=O)c1nc(C(=O)N[C@@H](Cc2ccc(N)cc2)CC(C)(C)C(=O)O)cs1)C(C)C ?
RESULT: 0.10

QUERY: And CCCCCON(C(=O)[C@@H](NC(=O)[C@H]1CCCCN1C)[C@@H](C)CC)[C@H](C[C@@H](OC(C)=O)c1nc(C(=O)N[C@@H](Cc2ccc(N)cc2)CC(C)(C)C(=O)O)cs1)C(C)C ?
RESULT: -0.18

QUERY: And CC[C@H](C)[C@H](NC(=O)[C@H]1CCCCN1C)C(=O)N(CCCCc1cn(-c2ccccc2)nn1)[C@H](C[C@@H](OC(C)=O)c1nc(C(=O)N[C@@H](Cc2ccc(N)cc2)CC(C)(C)C(=O)O)cs1)C(C)C ?
RESULT: 0.05

Numbers sourced from patent US12144864B2.
